# assayedTarget: T1, CC CKR1, stably expressed on HEK 293 cells (Homo sapiens (Human), UniProt P32246 1-355)
# T1 construct: also called CC CKLR1
# T1 sequence: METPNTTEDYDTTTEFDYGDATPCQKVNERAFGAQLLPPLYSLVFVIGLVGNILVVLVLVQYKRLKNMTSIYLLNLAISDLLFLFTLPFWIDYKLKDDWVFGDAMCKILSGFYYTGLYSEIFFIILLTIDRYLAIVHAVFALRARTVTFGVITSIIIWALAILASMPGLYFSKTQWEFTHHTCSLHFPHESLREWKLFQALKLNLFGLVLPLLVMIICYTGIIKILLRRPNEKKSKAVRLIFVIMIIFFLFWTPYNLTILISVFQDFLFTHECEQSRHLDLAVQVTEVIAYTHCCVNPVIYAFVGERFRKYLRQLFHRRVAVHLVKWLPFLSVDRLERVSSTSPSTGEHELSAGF
# experimentalProtocol: homologous competition against ^125I-MIP-1β on CC CKR1 cells
pIC50: −log10 of the molar value.
reportedEndpoint: pIC50

Summary for this binder, MIP-1β (ligand, human, UniProt P13236 24-92, looked up) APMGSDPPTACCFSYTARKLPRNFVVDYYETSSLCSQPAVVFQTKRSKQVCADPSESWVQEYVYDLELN : pIC50 is ~6.70
